Target: human CD33 F177A (human, UniProt P20138 18-364)
Sequence (P20138 18-364 F177A limits assumed): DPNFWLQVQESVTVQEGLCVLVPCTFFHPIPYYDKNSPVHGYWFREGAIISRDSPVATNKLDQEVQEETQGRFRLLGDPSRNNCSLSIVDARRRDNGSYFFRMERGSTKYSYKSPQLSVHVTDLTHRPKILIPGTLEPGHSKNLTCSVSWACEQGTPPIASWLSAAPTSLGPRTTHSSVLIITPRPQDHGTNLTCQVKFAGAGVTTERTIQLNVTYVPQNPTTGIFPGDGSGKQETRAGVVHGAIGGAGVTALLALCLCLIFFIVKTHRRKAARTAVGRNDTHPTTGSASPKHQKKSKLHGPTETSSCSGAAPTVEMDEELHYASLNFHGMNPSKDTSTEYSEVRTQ
Test: alanine scan, flow cytometry, HEK293-T;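 also: antibody binding to each alanine-substituted CD33 mutant expressed transiently in HEK293-T, read as fluorescence minus background, mean of duplicates, relative to wild-type CD33 set as 100%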
Give Mean % WT Binding for every item shown.
Answers are plain numbers, in %.

binder	Mean % WT Binding [%]
Refmab #3 (antibody, V domains shown, In the alanine scan antibodies were used as IgG or Fab) VH: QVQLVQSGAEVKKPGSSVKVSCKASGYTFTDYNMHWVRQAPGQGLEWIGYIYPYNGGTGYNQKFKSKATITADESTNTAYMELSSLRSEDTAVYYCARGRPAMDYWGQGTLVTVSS VL: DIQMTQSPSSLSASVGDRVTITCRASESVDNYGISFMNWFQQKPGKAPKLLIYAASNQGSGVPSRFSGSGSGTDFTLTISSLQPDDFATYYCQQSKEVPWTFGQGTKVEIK	60.4
Refmab #2 (antibody, V domains shown, In the alanine scan antibodies were used as IgG or Fab) VH: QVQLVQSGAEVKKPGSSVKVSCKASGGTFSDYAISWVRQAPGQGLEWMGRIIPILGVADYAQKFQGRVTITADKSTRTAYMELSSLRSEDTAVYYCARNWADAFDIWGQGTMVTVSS VL: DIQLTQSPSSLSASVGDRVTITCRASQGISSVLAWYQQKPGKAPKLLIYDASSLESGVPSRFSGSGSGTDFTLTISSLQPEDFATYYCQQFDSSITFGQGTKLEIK	67.5
Refmab #1 (antibody, V domains shown, In the alanine scan antibodies were used as IgG or Fab; also called hP67.6) VH: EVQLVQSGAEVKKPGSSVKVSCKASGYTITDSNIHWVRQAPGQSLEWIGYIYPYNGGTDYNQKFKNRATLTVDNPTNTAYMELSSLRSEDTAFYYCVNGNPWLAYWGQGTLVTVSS VL: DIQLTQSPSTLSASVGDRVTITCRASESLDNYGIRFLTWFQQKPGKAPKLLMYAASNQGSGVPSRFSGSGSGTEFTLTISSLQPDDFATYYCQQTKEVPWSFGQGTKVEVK	68.4

Here is another binder to look at.
Report Mean % WT Binding for Refmab #4 (antibody, V domains shown, In the alanine scan antibodies were used as IgG or Fab) VH: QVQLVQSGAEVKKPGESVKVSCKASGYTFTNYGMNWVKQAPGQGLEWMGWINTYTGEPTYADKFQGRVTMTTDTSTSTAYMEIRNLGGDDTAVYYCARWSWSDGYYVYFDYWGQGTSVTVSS VL: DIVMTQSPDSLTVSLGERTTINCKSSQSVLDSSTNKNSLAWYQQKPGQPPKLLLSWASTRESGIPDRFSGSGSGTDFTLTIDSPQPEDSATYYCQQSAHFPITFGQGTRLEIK please.
25.4
